# ASSAY SUMMARY: terephthalic acid (TPA) released, HPLC; higher = more TPA released; extreme values may be limits of the assay
# CONDITION LABEL: PET substrate: cryPow; 60 °C; pH 5.5; 24 h
PARAMETER MEASURED: terephthalic acid
For clarity, give the value followed by its unit.

Query block: Fill in the blank: the reported terephthalic acid of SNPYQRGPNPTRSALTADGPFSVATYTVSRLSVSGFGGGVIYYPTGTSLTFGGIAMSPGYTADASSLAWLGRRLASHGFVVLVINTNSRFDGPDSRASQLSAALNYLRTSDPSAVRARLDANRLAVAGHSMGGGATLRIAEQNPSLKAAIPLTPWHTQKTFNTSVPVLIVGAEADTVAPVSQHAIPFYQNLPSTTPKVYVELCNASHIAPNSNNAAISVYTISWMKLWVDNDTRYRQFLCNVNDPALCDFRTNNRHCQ [LCC-ICCG DAQI] is ____.
Result block: 0.0856 mM

Query block: Fill in the blank: the reported terephthalic acid of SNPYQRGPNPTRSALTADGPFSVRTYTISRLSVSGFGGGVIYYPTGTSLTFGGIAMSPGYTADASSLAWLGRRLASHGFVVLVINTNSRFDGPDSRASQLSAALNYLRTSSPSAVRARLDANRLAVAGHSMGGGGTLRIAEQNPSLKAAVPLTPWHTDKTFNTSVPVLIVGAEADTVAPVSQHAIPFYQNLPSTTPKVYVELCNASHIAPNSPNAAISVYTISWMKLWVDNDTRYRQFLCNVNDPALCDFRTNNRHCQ [LCC-ICCG RIP] is ____.
Result block: 0.0956 mM

Query block: Fill in the blank: the reported terephthalic acid of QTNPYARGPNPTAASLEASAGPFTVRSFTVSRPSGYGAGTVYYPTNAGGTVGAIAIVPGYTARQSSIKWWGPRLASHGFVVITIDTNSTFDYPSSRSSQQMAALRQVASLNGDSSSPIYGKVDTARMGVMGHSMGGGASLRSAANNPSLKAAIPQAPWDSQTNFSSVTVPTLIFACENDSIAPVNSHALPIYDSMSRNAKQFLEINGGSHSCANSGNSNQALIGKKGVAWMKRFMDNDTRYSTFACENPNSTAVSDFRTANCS [DuraPETase] is ____.
Result block: 0 mM

Query block: Fill in the blank: the reported terephthalic acid of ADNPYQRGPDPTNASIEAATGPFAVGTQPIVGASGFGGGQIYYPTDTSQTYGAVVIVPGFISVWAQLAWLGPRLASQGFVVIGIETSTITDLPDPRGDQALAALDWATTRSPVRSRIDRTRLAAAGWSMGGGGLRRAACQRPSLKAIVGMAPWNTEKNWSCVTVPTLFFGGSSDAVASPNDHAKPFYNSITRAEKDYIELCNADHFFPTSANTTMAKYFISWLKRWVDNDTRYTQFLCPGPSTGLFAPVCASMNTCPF [CaPETaseM9] is ____.
Result block: 0.0432 mM

Query block: Fill in the blank: the reported terephthalic acid of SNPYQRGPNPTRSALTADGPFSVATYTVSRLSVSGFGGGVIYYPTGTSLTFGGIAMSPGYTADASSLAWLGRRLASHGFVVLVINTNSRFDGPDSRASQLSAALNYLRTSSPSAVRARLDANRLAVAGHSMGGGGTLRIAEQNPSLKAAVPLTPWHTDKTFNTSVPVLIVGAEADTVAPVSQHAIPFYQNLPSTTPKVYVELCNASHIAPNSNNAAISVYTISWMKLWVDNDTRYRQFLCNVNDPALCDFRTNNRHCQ [LCC-ICCG] is ____.
Result block: 0.0979 mM

Query block: Fill in the blank: the reported terephthalic acid of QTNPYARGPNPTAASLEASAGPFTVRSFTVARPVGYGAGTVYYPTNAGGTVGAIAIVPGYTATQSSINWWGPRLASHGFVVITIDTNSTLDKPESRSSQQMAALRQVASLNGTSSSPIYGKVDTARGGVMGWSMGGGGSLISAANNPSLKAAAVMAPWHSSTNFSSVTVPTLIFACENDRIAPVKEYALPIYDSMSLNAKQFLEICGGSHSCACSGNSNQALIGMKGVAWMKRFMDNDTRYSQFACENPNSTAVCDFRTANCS [HotPETase] is ____.
Result block: 0.123 mM

---

Exercise: state measured BHET released for each of the sequences provided.
# ASSAY SUMMARY: BHET released, HPLC; higher = more BHET released; extreme values may be limits of the assay
# CONDITION LABEL: PET substrate: cryPow; 60 °C; pH 4.5; 24 h
Could you give me the number in mM? Just the number is fine.

Query block: Fill in the blank: the reported BHET released of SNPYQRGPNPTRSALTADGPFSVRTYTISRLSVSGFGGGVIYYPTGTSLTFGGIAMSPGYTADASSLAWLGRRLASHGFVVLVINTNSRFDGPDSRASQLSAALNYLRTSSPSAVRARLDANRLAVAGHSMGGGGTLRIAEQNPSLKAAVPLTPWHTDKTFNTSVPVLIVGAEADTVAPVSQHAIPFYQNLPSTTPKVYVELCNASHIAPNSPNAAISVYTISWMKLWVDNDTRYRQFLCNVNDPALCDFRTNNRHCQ [LCC-ICCG RIP] is ____.
Result block: 0.00464

Query block: Fill in the blank: the reported BHET released of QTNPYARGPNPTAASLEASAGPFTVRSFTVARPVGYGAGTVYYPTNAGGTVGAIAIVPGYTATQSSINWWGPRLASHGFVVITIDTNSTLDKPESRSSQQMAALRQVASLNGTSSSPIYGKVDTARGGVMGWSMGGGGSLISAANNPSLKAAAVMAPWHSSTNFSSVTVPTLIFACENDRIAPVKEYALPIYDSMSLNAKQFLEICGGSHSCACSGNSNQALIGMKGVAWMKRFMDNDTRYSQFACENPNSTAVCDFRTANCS [HotPETase] is ____.
Result block: 0

Query block: Fill in the blank: the reported BHET released of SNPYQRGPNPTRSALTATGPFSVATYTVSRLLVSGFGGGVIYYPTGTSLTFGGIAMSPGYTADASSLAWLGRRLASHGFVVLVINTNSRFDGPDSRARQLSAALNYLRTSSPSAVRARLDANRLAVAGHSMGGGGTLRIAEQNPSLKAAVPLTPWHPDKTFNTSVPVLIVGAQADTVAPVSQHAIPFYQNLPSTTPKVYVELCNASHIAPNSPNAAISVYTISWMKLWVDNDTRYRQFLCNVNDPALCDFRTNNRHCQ [LCC-ICCG I6M] is ____.
Result block: 0.00411

---

# ASSAY SUMMARY: PET hydrolysis product formed (TPA+MHET+BHET, UV-Vis) per mg enzyme (mmol/mg enzyme); higher = more PET depolymerisation activity; extreme values may be limits of the assay
# CONDITION LABEL: PET substrate: aFilm; 70 °C; pH 9.5; 24 h
PARAMETER MEASURED: PET hydrolysis product formed
Enter the number alone.

Query block: Fill in the blank: the reported PET hydrolysis product formed of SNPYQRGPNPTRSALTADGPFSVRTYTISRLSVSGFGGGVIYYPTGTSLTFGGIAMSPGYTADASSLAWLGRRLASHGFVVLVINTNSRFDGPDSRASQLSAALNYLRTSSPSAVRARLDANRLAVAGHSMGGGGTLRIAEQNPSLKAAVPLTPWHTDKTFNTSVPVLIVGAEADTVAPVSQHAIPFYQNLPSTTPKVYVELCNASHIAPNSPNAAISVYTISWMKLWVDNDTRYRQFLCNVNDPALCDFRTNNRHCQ [LCC-ICCG RIP] is ____.
Result block: 0.65

Query block: Fill in the blank: the reported PET hydrolysis product formed of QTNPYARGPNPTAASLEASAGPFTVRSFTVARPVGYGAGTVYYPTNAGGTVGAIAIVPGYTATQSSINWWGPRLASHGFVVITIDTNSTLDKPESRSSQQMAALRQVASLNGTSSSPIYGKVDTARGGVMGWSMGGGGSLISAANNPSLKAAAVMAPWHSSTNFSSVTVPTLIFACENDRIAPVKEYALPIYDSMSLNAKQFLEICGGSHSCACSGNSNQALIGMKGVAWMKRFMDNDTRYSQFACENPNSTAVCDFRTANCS [HotPETase] is ____.
Result block: 0.175

Query block: Fill in the blank: the reported PET hydrolysis product formed of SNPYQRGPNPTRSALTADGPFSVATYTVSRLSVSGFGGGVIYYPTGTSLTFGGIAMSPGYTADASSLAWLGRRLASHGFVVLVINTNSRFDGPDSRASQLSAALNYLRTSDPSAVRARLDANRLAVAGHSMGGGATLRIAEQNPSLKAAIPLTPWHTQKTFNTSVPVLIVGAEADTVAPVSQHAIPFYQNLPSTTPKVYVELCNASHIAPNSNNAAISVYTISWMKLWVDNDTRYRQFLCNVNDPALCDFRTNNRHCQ [LCC-ICCG DAQI] is ____.
Result block: 0.859

Query block: Fill in the blank: the reported PET hydrolysis product formed of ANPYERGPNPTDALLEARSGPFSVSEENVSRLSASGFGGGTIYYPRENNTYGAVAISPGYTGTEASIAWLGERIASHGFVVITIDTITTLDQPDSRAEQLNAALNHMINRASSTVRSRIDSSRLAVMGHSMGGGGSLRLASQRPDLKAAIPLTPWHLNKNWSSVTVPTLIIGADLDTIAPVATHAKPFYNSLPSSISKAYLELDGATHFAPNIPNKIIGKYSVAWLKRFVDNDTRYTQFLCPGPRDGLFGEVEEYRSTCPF [TfCut2] is ____.
Result block: 0.0072

Query block: Fill in the blank: the reported PET hydrolysis product formed of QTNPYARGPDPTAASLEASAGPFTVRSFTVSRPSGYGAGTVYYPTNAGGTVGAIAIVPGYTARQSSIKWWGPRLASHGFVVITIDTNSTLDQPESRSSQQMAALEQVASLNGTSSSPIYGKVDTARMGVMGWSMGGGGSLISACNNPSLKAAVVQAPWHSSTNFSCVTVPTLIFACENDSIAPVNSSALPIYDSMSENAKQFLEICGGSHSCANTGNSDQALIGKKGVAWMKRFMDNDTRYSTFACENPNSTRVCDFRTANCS [Z1-PETase] is ____.
Result block: 0.00672

Query block: Fill in the blank: the reported PET hydrolysis product formed of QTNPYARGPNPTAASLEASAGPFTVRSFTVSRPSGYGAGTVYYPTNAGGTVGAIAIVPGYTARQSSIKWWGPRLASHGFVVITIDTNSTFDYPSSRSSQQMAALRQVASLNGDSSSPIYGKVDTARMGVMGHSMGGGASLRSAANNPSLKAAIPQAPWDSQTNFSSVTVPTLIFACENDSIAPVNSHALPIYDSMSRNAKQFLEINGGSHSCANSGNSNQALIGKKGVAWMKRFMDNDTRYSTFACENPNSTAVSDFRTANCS [DuraPETase] is ____.
Result block: 0.0201

Each recorded value in this set is attributed to the supplement of paper PMC11196671.
